Biological target: UniProt:P08235
Sequence (P08235 whole entry): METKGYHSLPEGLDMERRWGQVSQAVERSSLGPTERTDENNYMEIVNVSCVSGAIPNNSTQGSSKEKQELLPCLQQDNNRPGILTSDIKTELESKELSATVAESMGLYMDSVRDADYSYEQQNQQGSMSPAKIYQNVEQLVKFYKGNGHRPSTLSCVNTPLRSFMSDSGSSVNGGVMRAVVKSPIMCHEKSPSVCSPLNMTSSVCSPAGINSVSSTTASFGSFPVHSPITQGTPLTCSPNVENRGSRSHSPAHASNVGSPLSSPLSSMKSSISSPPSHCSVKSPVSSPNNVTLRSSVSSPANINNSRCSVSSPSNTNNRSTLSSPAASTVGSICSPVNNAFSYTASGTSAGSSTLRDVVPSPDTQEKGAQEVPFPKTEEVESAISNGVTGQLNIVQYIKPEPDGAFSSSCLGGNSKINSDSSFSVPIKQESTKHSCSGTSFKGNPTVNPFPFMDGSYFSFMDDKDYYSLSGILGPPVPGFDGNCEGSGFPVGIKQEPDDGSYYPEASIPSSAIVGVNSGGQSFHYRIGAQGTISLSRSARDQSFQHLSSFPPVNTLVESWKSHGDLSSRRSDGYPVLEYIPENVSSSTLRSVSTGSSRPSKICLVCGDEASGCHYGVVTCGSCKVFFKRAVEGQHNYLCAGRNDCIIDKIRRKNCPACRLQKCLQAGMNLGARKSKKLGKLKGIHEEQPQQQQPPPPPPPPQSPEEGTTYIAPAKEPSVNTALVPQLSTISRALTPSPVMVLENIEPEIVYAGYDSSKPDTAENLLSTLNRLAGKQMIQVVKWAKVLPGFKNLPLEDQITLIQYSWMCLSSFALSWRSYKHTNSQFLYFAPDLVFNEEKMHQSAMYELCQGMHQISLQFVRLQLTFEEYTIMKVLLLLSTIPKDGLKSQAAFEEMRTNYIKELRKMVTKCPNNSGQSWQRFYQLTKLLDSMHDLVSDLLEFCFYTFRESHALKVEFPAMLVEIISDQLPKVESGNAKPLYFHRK
Test: Binding to recombinant mineral corticoid receptor
Conditions: recombinantly produced receptor
pIC50: −log10 of the molar value.

>  <compound>
CC[C@@H]1C[C@](O)(C(F)(F)F)[C@@H](Nc2cccc3c2cnn3-c2ccc(F)cc2)c2ccc(F)c(O)c21 [Example 4]

>  <pIC50>
< 6.00

$$$$

---

Target: ER
Assay: Steroid receptor binding, ER
pIC50: −log10 of the molar value.

>  <structure.smiles>
CC[C@@H]1C[C@](O)(C(F)(F)F)[C@@H](Nc2cccc3c2cnn3-c2ccc(F)cc2)c2ccc(F)c(O)c21

>  <pIC50>
< 6.00

$$$$

---

Biological target: androgen receptor (AR) (Homo sapiens, UniProt P10275)
Sequence (P10275 whole entry, species assumed): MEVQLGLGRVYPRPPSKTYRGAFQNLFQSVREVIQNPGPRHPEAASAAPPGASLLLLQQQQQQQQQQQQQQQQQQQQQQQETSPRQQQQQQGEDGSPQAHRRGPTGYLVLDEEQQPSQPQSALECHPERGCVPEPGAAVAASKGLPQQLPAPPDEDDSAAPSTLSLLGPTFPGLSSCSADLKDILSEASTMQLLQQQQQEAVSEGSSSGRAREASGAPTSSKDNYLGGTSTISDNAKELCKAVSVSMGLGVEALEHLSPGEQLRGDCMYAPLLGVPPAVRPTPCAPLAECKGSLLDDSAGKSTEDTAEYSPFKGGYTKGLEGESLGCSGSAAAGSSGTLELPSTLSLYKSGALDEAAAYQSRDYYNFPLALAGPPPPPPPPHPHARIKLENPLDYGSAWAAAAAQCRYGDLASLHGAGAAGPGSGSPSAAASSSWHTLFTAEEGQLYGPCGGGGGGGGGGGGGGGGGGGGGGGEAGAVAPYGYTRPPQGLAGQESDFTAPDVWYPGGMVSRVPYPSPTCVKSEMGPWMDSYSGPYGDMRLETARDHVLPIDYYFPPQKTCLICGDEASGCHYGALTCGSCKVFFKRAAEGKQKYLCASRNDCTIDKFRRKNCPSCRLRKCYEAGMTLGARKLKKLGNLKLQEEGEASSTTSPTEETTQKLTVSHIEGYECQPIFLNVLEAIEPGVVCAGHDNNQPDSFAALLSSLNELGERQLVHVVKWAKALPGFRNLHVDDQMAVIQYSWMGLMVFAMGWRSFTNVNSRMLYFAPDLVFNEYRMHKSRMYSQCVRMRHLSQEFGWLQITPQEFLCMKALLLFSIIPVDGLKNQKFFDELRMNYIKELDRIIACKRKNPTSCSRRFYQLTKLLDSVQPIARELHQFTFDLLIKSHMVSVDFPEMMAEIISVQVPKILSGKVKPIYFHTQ
Experiment: Binding to recombinant androgen receptor
Settings: recombinantly produced receptor

>  <structure.smiles>
CC[C@@H]1C[C@](O)(C(F)(F)F)[C@@H](Nc2cccc3c2cnn3-c2ccc(F)cc2)c2ccc(F)c(O)c21

>  <IC50>
> 1000 nM

$$$$

Where do the numbers come from? From patent US20080227820A1.
